B1: TPR 5TU (parent)
chain: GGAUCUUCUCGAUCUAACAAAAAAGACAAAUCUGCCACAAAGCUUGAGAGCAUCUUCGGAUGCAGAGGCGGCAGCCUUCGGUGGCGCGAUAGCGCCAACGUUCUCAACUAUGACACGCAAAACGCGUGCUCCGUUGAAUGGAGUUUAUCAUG

Variants of: B1
Assay: polymerase ribozyme fitness, log enrichment relative to wild type (log ratio); higher = more active; in vitro selection for triplet polymerase activity
This sample holds only a part of the variants without activity.
polymerase ribozyme fitness (log ratio) values by entry

| VARIANT SPEC | polymerase ribozyme fitness (log ratio) |
| --- | --- |
| C96G C99G C116A A147C | ≤ -4.2 |
| A60U U78C A91U C116A G117U | ≤ -4.2 |
| U6G A22C C35A G58C G74U C76U U78C G133U U151C | ≤ -4.2 |
| A21C A52U G74A G94C A121U | ≤ -4.2 |
| C93U A98G | -1.59 |
| U55G U56A G68A C96U | ≤ -4.2 |
| A39G U134G | -3.86 |
| U53A G83C G94U A97G U101G U102G C116A G140U | ≤ -4.2 |
| A16G U134G | -3.44 |
| A52U C54U | -1.2 |
| C54U G84A A97U | -1.27 |

These entries and their values trace back to the RNAGym collection of RNA variant scans (doi:10.1073/pnas.2313332121).
